tgt: human 5-HT6 receptor (Homo sapiens)
Construct: host or cells: CHO-K1 cells, stably transfected; membranes prepared in house
Sequence (P50406 whole entry): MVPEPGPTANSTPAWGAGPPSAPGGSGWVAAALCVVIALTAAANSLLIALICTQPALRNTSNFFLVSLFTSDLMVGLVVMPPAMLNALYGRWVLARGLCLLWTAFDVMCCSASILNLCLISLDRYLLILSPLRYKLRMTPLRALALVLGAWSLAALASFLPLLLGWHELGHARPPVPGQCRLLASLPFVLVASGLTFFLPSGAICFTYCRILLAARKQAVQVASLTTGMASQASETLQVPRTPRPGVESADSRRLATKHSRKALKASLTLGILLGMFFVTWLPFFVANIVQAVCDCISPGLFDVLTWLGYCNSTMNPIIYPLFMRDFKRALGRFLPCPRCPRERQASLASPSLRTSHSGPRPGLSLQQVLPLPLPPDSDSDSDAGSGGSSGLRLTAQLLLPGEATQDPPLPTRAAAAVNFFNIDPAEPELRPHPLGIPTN
run description: Human 5-HT6 Receptor Binding Assay ([3H]LSD, scintillation beads)
condition label: membranes of CHO-K1 cells with recombinant human 5-HT6 receptor, 4 nM [3H]LSD, Cheng-Prusoff; read-out: Human 5-HT6 Ki app
endpoint name: Ki

Req: Bench note: what Ki did O=S(=O)(c1ccccc1)c1ccc2c(c1)OCC1C2CCN1CC1CCCC1 (single isomer, unassigned) [Example 71] show?
Resp: > 1000 nM

Req: Bench note: what Ki did O=S(=O)(c1cccc(F)c1)c1ccc2c(c1)OCC1NCCC21 (single isomer, unassigned) [Example 1] show?
Resp: < 500 nM

Req: Bench note: what Ki did O=S(=O)(c1cc(Cl)cc(Cl)c1)c1ccc2c(c1)OCC1NCCC21 (single isomer, unassigned) [Example 12] show?
Resp: < 500 nM

Req: Bench note: what Ki did O=S(=O)(c1ccc2c(c1)OCC1NCCC21)c1cccc(F)c1F (single isomer, unassigned) [Example 49] show?
Resp: < 500 nM
